Values were extracted from the supplement of paper PMC7877785.

measurement_notes: self-splicing fitness, log relative to wild type (ln ratio); higher = more splicing; Tetrahymena group I intron in knt gene, E. coli kanamycin selection, DiMSum; sequences stand for … in CUCUCU…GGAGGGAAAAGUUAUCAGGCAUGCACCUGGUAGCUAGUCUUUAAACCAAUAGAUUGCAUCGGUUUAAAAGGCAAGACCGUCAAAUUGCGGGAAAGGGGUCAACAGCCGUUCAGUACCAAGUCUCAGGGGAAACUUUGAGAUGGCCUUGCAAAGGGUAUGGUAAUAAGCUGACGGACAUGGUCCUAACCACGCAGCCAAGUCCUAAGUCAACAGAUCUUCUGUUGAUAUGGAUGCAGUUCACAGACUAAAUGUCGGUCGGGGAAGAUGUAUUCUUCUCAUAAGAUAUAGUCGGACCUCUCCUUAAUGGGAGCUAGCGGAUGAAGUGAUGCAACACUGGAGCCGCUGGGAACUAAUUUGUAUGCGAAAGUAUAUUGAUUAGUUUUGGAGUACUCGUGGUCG;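 further: selection with 25 µg/mL kanamycin versus none on LB agar overnight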
condition_parameters: 30 °C
Listed below: self-splicing fitness (ln) values for each entry.
Format: numeric value only, no unit, no commentary.

# polymer_sequence, self-splicing fitness (ln)
measured = [
    ("CUUCAGCAAUAUUACGAUUG", -0.473),
]

Ask: Consider the sequence shown here: AAGAAGCAAUAUUACGUAGG What is its recorded self-splicing fitness (ln)?
Reply: -2.09

Ask: Consider the sequence shown here: UAGGAGCAAUAUUACGGGUC What is its recorded self-splicing fitness (ln)?
Reply: -2.64

Ask: Consider the sequence shown here: CUGGAGCAAUAUUACGUGCG What is its recorded self-splicing fitness (ln)?
Reply: -1.44

---

measurement_notes: self-splicing fitness, log relative to wild type (ln ratio); higher = more splicing; Tetrahymena group I intron in knt gene, E. coli kanamycin selection, DiMSum; sequences stand for … in CUCUCU…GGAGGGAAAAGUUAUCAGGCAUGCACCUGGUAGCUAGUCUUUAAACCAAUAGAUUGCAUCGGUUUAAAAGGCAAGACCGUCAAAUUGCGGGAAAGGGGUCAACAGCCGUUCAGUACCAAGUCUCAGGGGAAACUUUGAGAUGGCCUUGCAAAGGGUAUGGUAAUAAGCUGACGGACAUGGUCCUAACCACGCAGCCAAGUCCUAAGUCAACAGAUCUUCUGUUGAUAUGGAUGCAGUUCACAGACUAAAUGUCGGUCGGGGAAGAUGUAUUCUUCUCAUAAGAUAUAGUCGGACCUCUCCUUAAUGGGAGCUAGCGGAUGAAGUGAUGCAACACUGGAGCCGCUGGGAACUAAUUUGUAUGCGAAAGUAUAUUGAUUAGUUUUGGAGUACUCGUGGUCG
condition_parameters: 30 °C
Listed below: self-splicing fitness (ln) values for each entry.
Format: numeric value only, no unit, no commentary.

Worked set:
# polymer_sequence, value_kind, measurement
measured = [
    ("ACCCAGCAAUAUUACGGCUA", "self-splicing fitness (ln)", -0.684),
    ("UGUAAGCAAUAUUACGGCGC", "self-splicing fitness (ln)", -1.87),
    ("AAGGAGCAAUAUUACGCACU", "self-splicing fitness (ln)", -1.53),
    ("GUAGAGCAAUAUUACGUAUA", "self-splicing fitness (ln)", -1.7),
    ("UACUAGCAAUAUUACGGAAC", "self-splicing fitness (ln)", -3.78),
]

Ask: Consider the sequence shown here: UCAGAGCAAUAUUACGGUCA What is its recorded self-splicing fitness (ln)?
Reply: -1.72

Ask: Consider the sequence shown here: GUAGAGCAAUAUUACGUCGG What is its recorded self-splicing fitness (ln)?
Reply: -1.87

Ask: Consider the sequence shown here: GAAUAGCAAUAUUACGCACG What is its recorded self-splicing fitness (ln)?
Reply: -1.22
